# System: Hep-G2
# Protocol: Cell growth inhibition, Hep-G2
# Assay type: cell-based
# Measurement Conditions: Homo sapiens, HepG2, NI = No Inhibition at 100 uM
Attribute Measured: IC50 (µM)

• CC(=O)OC[C@H]1O[C@H](Oc2ccc(-c3cn(CCCCCCC(=O)NO)nn3)cc2)[C@@H](OC(C)=O)[C@@H](OC(C)=O)[C@@H]1OC(C)=O = 8
• O=C(CCCCCCn1cc(-c2ccc3cc(O[C@H]4O[C@H](CO)[C@@H](O)[C@H](O)[C@@H]4O)ccc3c2)nn1)NO = 7.5

---

# Assay System: UniProtKB Q9UBN7
# Sequence (Q9UBN7 1-1215): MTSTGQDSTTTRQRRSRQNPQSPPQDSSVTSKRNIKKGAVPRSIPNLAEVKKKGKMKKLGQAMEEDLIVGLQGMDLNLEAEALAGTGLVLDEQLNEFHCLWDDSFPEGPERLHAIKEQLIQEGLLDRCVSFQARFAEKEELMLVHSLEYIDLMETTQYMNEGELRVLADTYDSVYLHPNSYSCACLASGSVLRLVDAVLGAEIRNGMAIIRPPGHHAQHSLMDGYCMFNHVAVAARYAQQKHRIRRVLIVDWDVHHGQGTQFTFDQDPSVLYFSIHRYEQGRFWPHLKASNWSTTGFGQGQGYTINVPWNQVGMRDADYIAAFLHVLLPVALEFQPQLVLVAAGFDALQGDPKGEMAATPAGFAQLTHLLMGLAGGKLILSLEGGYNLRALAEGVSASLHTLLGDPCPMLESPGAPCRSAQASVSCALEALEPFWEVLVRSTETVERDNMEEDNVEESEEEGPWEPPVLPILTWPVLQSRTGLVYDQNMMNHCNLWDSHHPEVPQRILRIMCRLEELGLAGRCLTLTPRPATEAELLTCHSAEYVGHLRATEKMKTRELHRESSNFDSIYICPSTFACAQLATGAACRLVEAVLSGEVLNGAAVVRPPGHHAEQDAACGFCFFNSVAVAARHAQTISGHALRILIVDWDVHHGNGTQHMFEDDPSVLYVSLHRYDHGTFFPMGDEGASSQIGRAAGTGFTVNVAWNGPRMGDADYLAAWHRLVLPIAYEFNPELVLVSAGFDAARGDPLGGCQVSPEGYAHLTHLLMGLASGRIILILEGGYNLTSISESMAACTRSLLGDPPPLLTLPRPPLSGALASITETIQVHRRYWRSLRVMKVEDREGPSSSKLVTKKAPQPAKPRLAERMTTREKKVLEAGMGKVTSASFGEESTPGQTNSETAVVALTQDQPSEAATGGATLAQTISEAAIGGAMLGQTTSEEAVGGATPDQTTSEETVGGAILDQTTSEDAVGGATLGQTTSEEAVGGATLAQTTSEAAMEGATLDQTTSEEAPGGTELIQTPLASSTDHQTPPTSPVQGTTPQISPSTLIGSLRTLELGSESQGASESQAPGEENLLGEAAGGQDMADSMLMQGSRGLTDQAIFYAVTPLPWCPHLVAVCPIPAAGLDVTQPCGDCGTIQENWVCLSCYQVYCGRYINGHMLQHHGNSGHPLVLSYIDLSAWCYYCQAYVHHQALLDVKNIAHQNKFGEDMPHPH
# Protocol: HDAC inhibition, HDAC6
# Type: biochemical
Attribute Measured: IC50 (nM)

- CC(=O)OC[C@H]1OC(Oc2ccc(-c3cn(CCCCCCC(=O)NO)nn3)cc2)C(OC(C)=O)[C@@H](OC(C)=O)[C@@H]1OC(C)=O (stereo in doubt): 1.05
- O=C(CCCCCCn1cc(-c2ccc3cc(O[C@H]4O[C@H](CO)[C@@H](O)[C@H](O)[C@@H]4O)ccc3c2)nn1)NO: 0.719
- O=C(CCCCCCn1cc(-c2ccc(O[C@H]3O[C@H](CO)[C@@H](O)[C@H](O)[C@H]3O)cc2)nn1)NO: 3.43
- O=C(CCCCCn1cc(-c2ccc3cc(O[C@H]4O[C@H](CO)[C@@H](O)[C@H](O)[C@@H]4O)ccc3c2)nn1)NO: 2.03

(a) O=C(CCCCCCn1cc(-c2ccc(OC3O[C@H](CO)[C@@H](O)[C@H](O)C3O)cc2)nn1)NO (stereo in doubt)
(b) O=C(/C=C/c1ccc(O[C@H]2O[C@H](CO)[C@@H](O)[C@H](O)[C@H]2O)cc1)NO
Ask: Returns the identifier with the smallest measured IC50 among a and b . Your choice should be expressed through its label.
Result: a

---

# Assay System: UniProt:Q13547
# Protocol: HDAC inhibition, HDAC1
# Format: biochemical
Attribute Measured: IC50 (nM)

Past entries and their recorded results:
* O=C(CCCCCCn1cc(-c2ccc(O[C@H]3O[C@H](CO)[C@@H](O)[C@H](O)[C@H]3O)cc2)nn1)NO [STR-V-53] | 24.3
* O=C(CCCCCCn1cc(-c2ccc(OC3O[C@H](CO)[C@@H](O)[C@H](O)C3O)cc2)nn1)NO (stereo in doubt) [STR-I-195] | 14.6

(I) O=C(/C=C/c1ccc2cc(O[C@H]3O[C@H](CO)[C@@H](O)[C@H](O)[C@H]3O)ccc2c1)NO [STR-V-115]
(II) O=C(CCCCCn1cc(-c2ccc(O[C@H]3O[C@H](CO)[C@@H](O)[C@H](O)[C@@H]3O)cc2)nn1)NO [STR-II-29]
(III) O=C(CCCCCCn1cc(-c2ccc3cc(O[C@H]4O[C@H](CO)[C@@H](O)[C@H](O)[C@H]4O)ccc3c2)nn1)NO [STR-V-114]
Ask: Order field: IC50 | Direction: descending (largest first) Output spec: labels arranged per the requested ranking.
Result: I, II, III
(I: 427 nM, II: 68.2 nM, III: 20.3 nM)

---

# Tested on: Hep-G2
# Protocol: Cell growth inhibition, Hep-G2
# Type: cell-based
# Measurement Conditions: Homo sapiens, HepG2, NI = No Inhibition at 100 uM
Attribute Measured: IC50 (µM)

Past entries and their recorded results:
• O=C(/C=C/c1ccc2cc(O[C@H]3O[C@H](CO)[C@@H](O)[C@H](O)[C@H]3O)ccc2c1)NO [Compound 8] = 66.1
• O=C(CCCCCCn1cc(-c2ccc(O[C@H]3O[C@H](CO)[C@@H](O)[C@H](O)[C@@H]3O)cc2)nn1)NO [Compound 5] = 22.3
• O=C(CCCCCCn1cc(-c2ccc(O[C@H]3O[C@H](CO)[C@@H](O)[C@H](O)[C@H]3O)cc2)nn1)NO [Compound 2] = 10.4

(A) CC(=O)OC[C@H]1O[C@H](Oc2ccc(-c3cn(CCCCCCC(=O)NO)nn3)cc2)[C@H](OC(C)=O)[C@@H](OC(C)=O)[C@@H]1OC(C)=O [Compound 1]
(B) O=C(CCCCCCn1cc(-c2ccc3cc(O[C@H]4O[C@H](CO)[C@@H](O)[C@H](O)[C@H]4O)ccc3c2)nn1)NO [Compound 3]
(C) O=C(CCCCCn1cc(-c2ccc(O[C@H]3O[C@H](CO)[C@@H](O)[C@H](O)[C@@H]3O)cc2)nn1)NO [Compound 10]
Ask: Order field: IC50 | Direction: descending (largest first) Output spec: labels arranged per the requested ranking.
Result: C, A, B
(C: 42.8 µM, A: 10.1 µM, B: 6.7 µM)

---

# Assay System: HDAC1 (Homo sapiens, UniProt Q13547)
# Sequence (Q13547 whole entry): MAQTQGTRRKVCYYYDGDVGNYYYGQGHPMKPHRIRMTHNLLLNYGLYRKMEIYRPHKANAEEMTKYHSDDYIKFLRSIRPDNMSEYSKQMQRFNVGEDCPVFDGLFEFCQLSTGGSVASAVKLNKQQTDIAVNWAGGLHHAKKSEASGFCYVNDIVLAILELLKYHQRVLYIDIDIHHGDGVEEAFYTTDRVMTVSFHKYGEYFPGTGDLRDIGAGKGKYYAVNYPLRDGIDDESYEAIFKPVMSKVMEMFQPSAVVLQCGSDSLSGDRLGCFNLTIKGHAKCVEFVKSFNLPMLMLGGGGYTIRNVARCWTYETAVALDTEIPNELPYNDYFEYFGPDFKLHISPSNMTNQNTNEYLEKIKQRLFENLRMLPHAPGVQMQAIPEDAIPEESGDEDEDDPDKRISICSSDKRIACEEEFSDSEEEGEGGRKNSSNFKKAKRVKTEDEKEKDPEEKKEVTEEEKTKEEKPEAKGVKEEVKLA
# Protocol: HDAC inhibition, HDAC1
# Type: biochemical
Attribute Measured: IC50 (nM)

Past entries and their recorded results:
• O=C(CCCCCCn1cc(-c2ccc(O)cc2)nn1)NO [STR-V-183, reference compound] = 12.2
• CC(=O)OC[C@H]1OC(Oc2ccc3cc(-c4cn(CCCCCCC(=O)NO)nn4)ccc3c2)C(OC(C)=O)[C@@H](OC(C)=O)[C@@H]1OC(C)=O (stereo in doubt) [STR-V-177] = 2.2
• O=C(CCCCCn1cc(-c2ccc3cc(O[C@H]4O[C@H](CO)[C@@H](O)[C@H](O)[C@@H]4O)ccc3c2)nn1)NO [STR-II-35] = 26.8
• CC(=O)OC[C@H]1OC(Oc2ccc(-c3cn(CCCCCCC(=O)NO)nn3)cc2)C(OC(C)=O)[C@@H](OC(C)=O)[C@@H]1OC(C)=O (stereo in doubt) [STR-V-176] = 1.43

(1) O=C(/C=C/c1ccc(O[C@H]2O[C@H](CO)[C@@H](O)[C@H](O)[C@H]2O)cc1)NO [STR-V-121]
(2) O=C(CCCCCCn1cc(-c2ccc3cc(O[C@H]4O[C@H](CO)[C@@H](O)[C@H](O)[C@@H]4O)ccc3c2)nn1)NO [STR-II-36]
Ask: Returns the identifier with the smallest measured IC50 among 1 and 2 . Your choice should be expressed through its label.
Result: 2
(2: 3.28 nM, 1: 3840 nM)

---

# Assay System: HDAC8 (Homo sapiens)
# Sequence (Q9BY41 whole entry): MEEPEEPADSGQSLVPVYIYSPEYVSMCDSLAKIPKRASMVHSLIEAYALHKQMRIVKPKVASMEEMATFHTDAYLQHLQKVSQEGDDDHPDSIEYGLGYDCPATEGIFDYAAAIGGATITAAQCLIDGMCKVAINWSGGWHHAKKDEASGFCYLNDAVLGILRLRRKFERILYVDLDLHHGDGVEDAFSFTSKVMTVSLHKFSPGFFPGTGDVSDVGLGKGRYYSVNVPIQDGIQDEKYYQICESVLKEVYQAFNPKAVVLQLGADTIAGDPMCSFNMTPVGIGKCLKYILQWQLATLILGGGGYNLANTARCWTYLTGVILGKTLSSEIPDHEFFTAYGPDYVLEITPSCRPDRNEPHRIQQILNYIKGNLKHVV
# Protocol: HDAC inhibition, HDAC8
# Assay type: biochemical
Attribute Measured: IC50 (nM)

Past entries and their recorded results:
* O=C(/C=C/c1ccc(O[C@H]2O[C@H](CO)[C@@H](O)[C@H](O)[C@H]2O)cc1)NO [STR-V-121] | 1820
* O=C(CCCCCn1cc(-c2ccc3cc(O[C@H]4O[C@H](CO)[C@@H](O)[C@H](O)[C@@H]4O)ccc3c2)nn1)NO [STR-II-35] | 1970
* CC(=O)OC[C@H]1OC(Oc2ccc(-c3cn(CCCCCCC(=O)NO)nn3)cc2)C(OC(C)=O)[C@@H](OC(C)=O)[C@@H]1OC(C)=O (stereo in doubt) [STR-V-176] | 271
* O=C(CCCCCCn1cc(-c2ccc(O[C@H]3O[C@H](CO)[C@@H](O)[C@H](O)[C@H]3O)cc2)nn1)NO [STR-V-53] | 843
* O=C(CCCCCCn1cc(-c2ccc(OC3O[C@H](CO)[C@@H](O)[C@H](O)C3O)cc2)nn1)NO (stereo in doubt) [STR-I-195] | 464

(P) O=C(CCCCCCn1cc(-c2ccc3cc(O[C@H]4O[C@H](CO)[C@@H](O)[C@H](O)[C@H]4O)ccc3c2)nn1)NO [STR-V-114]
(Q) CC(=O)OC[C@H]1OC(Oc2ccc3cc(-c4cn(CCCCCCC(=O)NO)nn4)ccc3c2)C(OC(C)=O)[C@@H](OC(C)=O)[C@@H]1OC(C)=O (stereo in doubt) [STR-V-177]
(R) O=C(/C=C/c1ccc2cc(O[C@H]3O[C@H](CO)[C@@H](O)[C@H](O)[C@H]3O)ccc2c1)NO [STR-V-115]
Ask: Order field: IC50 | Direction: descending (largest first) Output spec: labels arranged per the requested ranking.
Result: P, Q, R
(P: 2130 nM, Q: 718 nM, R: 461 nM)

From: patent US12617813B2
